# MEASUREMENT TARGET: human orexin-2 receptor (Homo sapiens (Human), UniProt O43614)
# Sequence (O43614 whole entry): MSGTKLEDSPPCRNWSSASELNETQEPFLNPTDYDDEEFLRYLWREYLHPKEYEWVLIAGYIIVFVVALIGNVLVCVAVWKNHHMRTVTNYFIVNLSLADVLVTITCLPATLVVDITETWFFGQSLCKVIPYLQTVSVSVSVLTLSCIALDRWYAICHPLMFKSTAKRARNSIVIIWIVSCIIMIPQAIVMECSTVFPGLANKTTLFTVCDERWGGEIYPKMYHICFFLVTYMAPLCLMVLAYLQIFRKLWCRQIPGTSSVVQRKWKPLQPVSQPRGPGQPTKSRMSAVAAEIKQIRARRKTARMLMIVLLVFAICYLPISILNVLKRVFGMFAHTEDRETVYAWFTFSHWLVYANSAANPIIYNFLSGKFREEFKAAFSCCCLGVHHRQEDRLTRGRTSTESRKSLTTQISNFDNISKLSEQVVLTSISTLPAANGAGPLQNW
# PROTOCOL SUMMARY: FLIPR Ca2+ Flux Assay, orexin-2 receptor (hOX2R FLIPR)
# Format: cell-based
# MEASUREMENT PARAMETERS: CHO cells expressing the human orexin-2 receptor; agonist 70 pM Ala-6,12 human orexin-A
Give IC50 for every item shown.
Please respond with the number in µM and leave the unit unwritten.

Ask | Return reported IC50; argument: `C[C@@H]1CC[C@@H](n2ncc(C(C)(C)O)n2)CN1C(=O)c1ccc(F)cc1-n1nccn1`
Reply | 0.0271

Ask | Thanks! And C[C@@H]1CC[C@@H](n2cc(C(C)(O)C(F)(F)F)cn2)CN1C(=O)c1ccccc1-n1nccn1 (stereo partly shown) ?
Reply | 0.0134

Ask | What about `C[C@@H]1CC[C@@H](n2cc(C(C)(C)O)cn2)CN1C(=O)c1ccccc1-n1nccn1` ?
Reply | 0.0216

Ask | Next entry: `C[C@@H]1CC[C@@H](n2ncc(C(C)(C)O)n2)CN1C(=O)c1ncccc1-n1nccn1`
Reply | 0.0449

Ask | Further, for `CCOc1ccccc1C(=O)N1C[C@H](n2cc(C(C)(C)O)cn2)CC[C@H]1C` ?
Reply | 0.121

Ask | Can you check `C[C@@H]1CC[C@@H](n2cc(C(C)(C)O)cn2)CN1C(=O)c1cccnc1-n1cccn1` next?
Reply | 0.0336

Ask | Continue with `Cc1nc(-c2ccc(F)cc2C(=O)N2C[C@H](n3ncc(C(C)(C)O)n3)CC[C@H]2C)no1`
Reply | 0.139

Ask | Another compound to check: `C[C@@H]1CC[C@@H](n2ncc(C(C)(C)O)n2)CN1C(=O)c1cccnc1-n1nccn1`
Reply | 0.401

Ask | Similarly, `Cc1noc(-c2ccc(F)cc2C(=O)N2C[C@H](n3ncc(C(C)(C)O)n3)CC[C@H]2C)n1` ?
Reply | 0.593

Ask | Try this compound too: `C[C@@H]1CC[C@@H](n2cc(C(C)(C)O)cn2)CN1C(=O)c1cccnc1OCC(F)(F)F`
Reply | 0.037

Ask | Here is the next compound: `COc1ccc(C(=O)N2C[C@H](n3cc(C(C)(C)O)cn3)CC[C@H]2C)c(C2CCC2)n1`
Reply | 0.0608

Ask | Same question for `C[C@@H]1CC[C@@H](n2ncc(C(C)(C)O)n2)CN1C(=O)c1ccccc1N1CCCC1` please.
Reply | 0.0291

Ask | Next up: `COc1cccc(-n2nccn2)c1C(=O)N1C[C@H](n2ncc(C(C)(C)O)n2)CC[C@H]1C`
Reply | 0.0674

Ask | Repeat with `C[C@@H]1CC[C@@H](n2cc(C(C)(C)O)cn2)CN1C(=O)c1cccnc1OCC(F)F`
Reply | 0.0588

Ask | What do you have for `Cc1nc(-c2ccccc2C(=O)N2C[C@H](n3ncc(C(C)(C)O)n3)CC[C@H]2C)no1` ?
Reply | 0.0457

Ask | Please give the result for `CCCc1ncccc1C(=O)N1C[C@H](n2ncc(C(C)(C)O)n2)CC[C@H]1C` too.
Reply | 1.06

Ask | # repeat for `C[C@@H]1CC[C@@H](n2cc(C(C)(C)O)cn2)CN1C(=O)c1ccccc1OC(F)F`
Reply | 0.464

Ask | Item: `C[C@@H]1CC[C@@H](n2ncc(Br)n2)CN1C(=O)c1ccccc1-n1nccn1`
Reply | 0.362

Ask | Also need `CC(C)c1ccccc1C(=O)N1C[C@H](n2ncc(C(C)(C)O)n2)CC[C@H]1C` , thanks.
Reply | 0.0713

Ask | `C[C@@H]1CC[C@@H](n2ncc(C(C)(C)O)n2)CN1C(=O)c1sccc1-n1nccn1` , same question.
Reply | 0.0896

Ask | Repeat with `Cc1noc(-c2cc(F)ccc2C(=O)N2C[C@H](n3ncc(C(C)(C)O)n3)CC[C@H]2C)n1`
Reply | 0.173

Ask | And then `COc1ccc(C(=O)N2C[C@H](n3ncc(C(C)(C)O)n3)CC[C@H]2C)c(-n2nccn2)n1` , what is it?
Reply | 0.0514

Ask | Do the same for `Cc1nn([C@@H]2CC[C@@H](C)N(C(=O)c3ccccc3-n3nccn3)C2)cc1C(C)(C)O` please
Reply | 0.0138

Ask | Also check `C[C@@H]1CC[C@@H](n2ncc(C(C)(C)O)n2)CN1C(=O)c1ccccc1SC(F)(F)F`
Reply | 0.02

Ask | Same for `CC(C)Oc1ncccc1C(=O)N1C[C@H](n2cc(C(C)(C)O)cn2)CC[C@H]1C`
Reply | 0.24

###

# MEASUREMENT TARGET: UniProtKB O43613
# PROTOCOL SUMMARY: FLIPR Ca2+ Flux Assay, orexin-1 receptor (hOXIR FLIPR)
# MEASUREMENT PARAMETERS: CHO cells expressing the orexin-1 receptor (method text: rat; table head: hOXIR); agonist 70 pM Ala-6,12 human orexin-A
pIC50: −log10 of the molar value.
EXPERIMENTAL READOUT: pIC50

Ask | Form field: reported pIC50 of C[C@@H]1CC[C@@H](n2cc(C(C)(C)O)cn2)CN1C(=O)c1ccccc1OC(F)F [Example 84]
Reply | < 5.00

Ask | Same again, this time with C[C@@H]1CC[C@@H](n2ncc([C@H](O)C(F)(F)F)n2)CN1C(=O)c1ccccc1-n1nccn1 [Example 26]
Reply | < 5.00

Ask | Also check Cc1nn([C@@H]2CC[C@@H](C)N(C(=O)c3ccccc3-n3cccn3)C2)nc1C(C)(C)O [Example 71]
Reply | 5.57

Ask | Another: C[C@@H]1CC[C@@H](n2ncc(C(C)(C)O)n2)CN1C(=O)c1ccc(F)cc1-n1nccn1 [Example 39]
Reply | < 5.00

Ask | // query: COC(=O)c1cnn([C@@H]2CC[C@@H](C)N(C(=O)c3ccccc3-n3nccn3)C2)n1 [Example 24]
Reply | < 5.00

Ask | One more compound: C[C@@H]1CC[C@@H](n2ncc(C(C)(C)O)n2)CN1C(=O)c1ccsc1-n1nccn1 [Example 33]
Reply | 5.59

Ask | Can you handle C[C@@H]1CC[C@@H](n2ncc(C(C)(C)O)n2)CN1C(=O)c1ccccc1[C@@H]1CC1(F)F [Example 22] next?
Reply | 6.13

Ask | # repeat for Cc1nn([C@@H]2CC[C@@H](C)N(C(=O)c3cccnc3OCC(F)F)C2)nc1C(C)(C)O [Example 64]
Reply | 5.52

Ask | Same again, this time with COc1ccc(C(=O)N2C[C@H](n3cc(C(C)(C)O)cn3)CC[C@H]2C)c(C2CCC2)n1 [Example 100]
Reply | < 5.00

Ask | Could you do the same for C[C@@H]1CC[C@@H](n2ncc(C(C)(C)O)n2)CN1C(=O)c1ccccc1SC(F)(F)F [Example 11] , please?
Reply | 5.59

Ask | Same again, this time with Cc1nn([C@@H]2CC[C@@H](C)N(C(=O)c3cccnc3OCC(F)(F)F)C2)nc1C(C)(C)O [Example 68]
Reply | 5.82

Ask | Param item: Cc1noc(-c2c(F)cccc2C(=O)N2C[C@H](n3ncc(C(C)(C)O)n3)CC[C@H]2C)n1 [Example 48]
Reply | < 5.00

Ask | # repeat for COC(=O)c1ncccc1C(=O)N1C[C@H](n2ncc(C(C)(C)O)n2)CC[C@H]1C [Example 8]
Reply | < 5.00

Ask | Here is the next compound: C[C@@H]1CC[C@@H](n2ncc(Br)n2)CN1C(=O)c1ccccc1-n1nccn1 [Example 29]
Reply | < 5.00

Ask | Repeat with Cc1nc(-c2ccc(F)cc2C(=O)N2C[C@H](n3ncc(C(C)(C)O)n3)CC[C@H]2C)no1 [Example 30]
Reply | < 5.00

Ask | Input C[C@@H]1CC[C@@H](n2cc(C(C)(C)O)cn2)CN1C(=O)c1ccccc1-n1cccn1 [Example 93]
Reply | < 5.00

Ask | How about CC(C)Oc1ncccc1C(=O)N1C[C@H](n2cc(C(C)(C)O)cn2)CC[C@H]1C [Example 97] ?
Reply | < 5.00

Ask | Proceed to CCOc1ccccc1C(=O)N1C[C@H](n2cc(C(C)(C)O)cn2)CC[C@H]1C [Example 77]
Reply | < 5.00

Ask | And the next one, C[C@@H]1CC[C@@H](n2ncc(C(C)(C)O)n2)CN1C(=O)c1nccnc1-c1ccccn1 [Example 42] ?
Reply | < 5.00

Ask | Follow-up entry: C[C@@H]1CC[C@@H](n2cc(C(C)(C)O)cn2)CN1C(=O)c1nccnc1-n1nccn1 [Example 101]
Reply | < 5.00

Ask | Proceed to Cc1nn([C@@H]2CC[C@@H](C)N(C(=O)c3ccccc3OC(F)F)C2)nc1C(C)(C)O [Example 66]
Reply | 5.51

Ask | Same for C[C@@H]1CC[C@@H](n2ncc(C(C)(C)O)n2)CN1C(=O)c1ccccc1CC(F)(F)F [Example 9]
Reply | < 5.00

Ask | # repeat for C[C@@H]1CC[C@@H](n2cc([C@](C)(O)C(F)(F)F)cn2)CN1C(=O)c1ccccc1-n1nccn1 [Example 106]
Reply | 5.69

Ask | Same again, this time with C[C@@H]1CC[C@@H](n2cc(C(C)(C)O)cn2)CN1C(=O)c1ccc(F)cc1-n1nccn1 [Example 91]
Reply | < 5.00

Ask | Now this one: C[C@@H]1CC[C@@H](n2cc([C@H](O)C(F)(F)F)cn2)CN1C(=O)c1ccccc1-n1nccn1 [Example 103]
Reply | < 5.00
